target: CXCR4 receptors (Homo sapiens, UniProt P61073); construct: expressing endogenous CXCR4 receptors; endogenous in cells; test: CXCR4-CEM calcium flux assay, antagonist mode (inhibition of SDF-1α-induced calcium flux); settings: inhibition of calcium flux induced by 4 nM SDF-1α in CCRF-CEM cells
Sequence (P61073 whole entry): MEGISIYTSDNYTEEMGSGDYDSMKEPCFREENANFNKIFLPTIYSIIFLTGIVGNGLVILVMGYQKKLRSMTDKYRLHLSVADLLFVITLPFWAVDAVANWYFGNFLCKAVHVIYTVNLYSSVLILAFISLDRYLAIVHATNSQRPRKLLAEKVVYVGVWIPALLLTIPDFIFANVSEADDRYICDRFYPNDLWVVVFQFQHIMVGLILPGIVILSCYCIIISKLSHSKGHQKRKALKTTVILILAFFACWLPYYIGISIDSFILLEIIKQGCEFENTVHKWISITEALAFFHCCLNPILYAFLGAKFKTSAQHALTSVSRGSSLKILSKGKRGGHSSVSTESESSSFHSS
compounds and their reported IC50
Numeric answer only, unit µM assumed.

CN(Cc1cn2c(N3CCN(CC4CCOC4)CC3)nccc2n1)[C@H]1CCCc2cccnc21 (stereo partly shown) [Example 32]; 0.31

Prompt: Identify measured IC50 obtained with CXCR4 receptors (Homo sapiens, UniProt P61073) for CN(Cc1cn2c(N3CCN(S(=O)(=O)c4ccccc4)CC3)nccc2n1)[C@H]1CCCc2cccnc21 [Example 63] .
Response: 16.7

Prompt: Find the measured IC50 of CN(Cc1cn2c(N3CCN(CC(c4ccccc4)c4ccccc4)CC3)nccc2n1)[C@H]1CCCc2cccnc21 [Example 39] with CXCR4 receptors (Homo sapiens, UniProt P61073) as test system.
Response: 0.063

Prompt: Provide IC50, system CXCR4 receptors (Homo sapiens, UniProt P61073), entry CN(Cc1cn2c(N3CCN4C[C@@H](F)C[C@H]4C3)nccc2n1)[C@H]1CCCc2cccnc21 [Example 87]
Response: 0.2
